- Test system: HCT-116
- measurement_notes: NCI tumour cell line growth inhibition, 48 h
Active and inactive are the calls of the source. Cut-off read from the data, not from the text of the source: active = GI50 up to about 1.1 µM and inactive = higher.
Answer each item with its documented GI50.

Check out these entries, answers already filled in.
// field: GI50; key: COc1cc(C2c3cc(O)c(OC)cc3C3OCC2C3CO)ccc1O (centres undefined) ; value = 76.9 µM (inactive)

// sample C/C=C(/C)C(=O)O[C@@H]1c2c(C)coc2C[C@H]2CC[C@H](O)[C@H](C)[C@]21C , its GI50 was 31.6 µM (inactive)

Measured GI50, O=C(Nc1ccccc1)c1cc(S(=O)(=O)Nc2nc3cccnc3[nH]2)c(SSc2cc(Cl)c(C(=O)Nc3ccccc3)cc2S(=O)(=O)Nc2nc3cccnc3[nH]2)cc1Cl : > 100 µM (inactive)

New cases:
Form: molecule = Cc1nc(-c2ccccc2)cc2c1c(=O)oc1ccccc12 ; GI50 = > 100 µM (inactive)

----------
- Test system: COLO 205
- measurement_notes: NCI tumour cell line growth inhibition, 48 h
Activity calls are given as the source filed them. No stated cut-off is given here; in the data, active = GI50 up to about 1.1 µM and inactive = higher.
# output must be one of label 1 = active, label 0 = inactive

[ask] Recorded test outcome, item O=C1Nc2ccc([N+](=O)[O-])cc2/C1=N/NC(=S)Nc1ccc([N+](=O)[O-])cc1
[reply] label 0

[ask] For CCOC(=O)Nc1cc2c(c(N)n1)N=C(c1ccc(Cl)cc1Cl)CN2 , what call appears in the results of this test?
[reply] label 1

[ask] Look up the recorded call for O=c1cc(N2CCCC2)[nH]c(=O)n1-c1cccc(Cl)c1 in this test.
[reply] label 0

[ask] Hey, what did the test say about CC(=O)OCC1OC(Nc2nc(O)n(C)c(=O)c2-c2csc(N)n2)C(OC(C)=O)C(OC(C)=O)C1OC(C)=O (stereo unspecified) ?
[reply] label 0

[ask] Fill in: this test's call for O=c1[nH]/c(=C/c2ccc3c(c2)OCO3)c(=O)[nH]/c1=C/c1ccc2c(c1)OCO2 is ___
[reply] label 0

[ask] Please state the recorded outcome for this compound: COC(=O)c1c(-c2ccc(Cl)cc2)cc2c3ccccc3n(C)c2c1C(=O)OC
[reply] label 0

New cases:
[ask] Outcome logged for COc1ccc2c3c([nH]c2c1[N+](=O)[O-])C(C)N(C)CC3 (stereo unspecified) in this assay:
[reply] label 0

----------
- System: DMS-114
- measurement_notes: NCI tumour cell line growth inhibition, 48 h
Active and inactive are the calls of the source. Rule as the data show it: active = GI50 up to about 1.1 µM and inactive = higher.
observed_property: GI50

# example entries with known answers
Noted GI50 for CCN(CC)/C(=C\Cl)Nc1ccccn1.[O-][Cl+3]([O-])([O-])O , tested on DMS-114: > 100 µM (inactive)

Log: DMS-114, molecule O=C(CSc1nnc[nH]1)C[P+](c1ccccc1)(c1ccccc1)c1ccccc1 , GI50 = 97.1 µM (inactive)

The reported GI50 value, DMS-114, for CC(=O)OCc1cc2c(s1)C(=O)c1sccc1C2=O reads 0.149 µM (active)

Value (GI50, DMS-114) for record O=C(O)c1c2c(c(C(=O)O)c3ccccc13)-c1ccccc1-2 = 74.1 µM (inactive)

Considering O=C1OC(CC(=O)c2ccc(Cl)c(Cl)c2)C(Cl)=C1Cl (stereo not given) , its GI50 with DMS-114 was recorded as 52.6 µM (inactive)

The observed GI50 for COc1nc(NC2OCC(OC(C)=O)C(OC(C)=O)C2OC(C)=O)c(-c2csc(N)n2)c(=O)n1C (stereo not given) when tested with DMS-114 stands at > 100 µM (inactive)

Give one value of GI50 per listed molecule.
1. Cc1cc(NC(=O)C(=O)Cc2nc3ccccc3s2)ccc1Cl
2. CC1CCC2[C@@H](C)COC3O[C@]4(C)CCC1C32OO4 (stereo not given in full)
3. COc1cc2c(c(OC)c1OC)-c1ccc(SC)c(=O)cc1C(CC(=O)Oc1ccc(F)cc1)C2 (stereo not given)
4. CCN(CCO)CCNc1ccc(C)c2sc3ccccc3c(=O)c12
5. COc1ccc2cc3n(c(=O)c2c1)CCc1c-3cc(OC)c(OC)c1OC

[reply]
1: > 100 µM (inactive); 2: > 100 µM (inactive); 3: 0.26 µM (active); 4: 7.67 µM (inactive); 5: > 100 µM (inactive)

----------
- Tested on: U-251
- measurement_notes: NCI tumour cell line growth inhibition, 48 h
Active and inactive are the calls of the source. No stated cut-off is given here; in the data, active = GI50 up to about 1.1 µM and inactive = higher.
observed_property: GI50

Completed entries (count: 3):
GI50 reading for Oc1c(Cl)c(Cl)c(O)c2c1CCCC2 : 17.5 µM (inactive)

CCOC(=O)C(C)Sc1nnc(COc2ccccc2OC)n1-c1ccccc1 (stereo unspecified) yielded GI50 of > 100 µM (inactive)

// field: GI50; key: NP(=O)(OCC1=CC(=O)c2ccccc2C1=O)N(CCBr)CCBr (stereo unspecified) ; value = 11.5 µM (inactive)

Quick one: give me GI50 for each item below, same order please.
1. CCc1nnc(-n2c(C)nc3cc(Cl)ccc3c2=O)s1
2. Cc1ccc(C)c(C(=N)c2ccccc2Cc2ccccc2)c1
3. O=C(N/C(=C\c1ccc(/C=C(\NC(=O)c2ccccc2)c2nc3cc(Cl)ccc3[nH]2)cc1)c1nc2cc(Cl)ccc2[nH]1)c1ccccc1
4. OCCOc1ccccc2cccc1-2
5. COC1=CC(=O)C2=C(C1=O)[C@H]1CC[C@]3(C)[C@@H](O)CC[C@H]3[C@@H]1CC2
6. COCC1OC(S(=O)(=O)c2ccccc2)C(O)C(OC)C1OC (stereo unspecified)

[reply]
1: 42.7 µM (inactive); 2: 15.5 µM (inactive); 3: 39.6 µM (inactive); 4: > 100 µM (inactive); 5: 17 µM (inactive); 6: > 100 µM (inactive)

Give one value of GI50 per listed compound.
1. CC1=CC(=O)c2c(C=O)c(O)c(O)c(C(C)C)c2C1=O
2. CCOC(=O)/C(=C/c1ccccn1)C(=O)c1ccccc1

[reply]
1: 19.8 µM (inactive); 2: 14.3 µM (inactive)

----------
- Test system: LXFL 529
- measurement_notes: NCI tumour cell line growth inhibition, 48 h
Calls of active or inactive are those of the source. Cut-off read from the data, not from the text of the source: active = GI50 up to about 1.1 µM and inactive = higher.
In this exercise, the only acceptable responses are yes (1) = active, no (0) = inactive

Answered examples (8):
[ask] Per the assay record, what outcome was assigned to CCc1cc(CCC(=O)Nc2c(C)cccc2C)n[nH]1 ?
[reply] no (0)

[ask] Record request — test call for O/N=C1/C(=C/c2ccc(F)cc2)CCCC1C(NO)c1ccc(F)cc1 (stereo not given)
[reply] no (0)

[ask] Record lookup: outcome of this test for CC(C)Cn1cnc2c(Sc3c([N+](=O)[O-])ncn3C)nc(N)nc21 ?
[reply] no (0)

[ask] Hi team, can someone confirm the assay call for O=C1CC(c2ccccc2)NCN1 (stereo not given) ?
[reply] no (0)

[ask] Could you kindly confirm the outcome this assay logged for Cc1c(C(=O)/C=C/c2ccccc2O)c(=O)n(-c2ccccc2)n1C ?
[reply] no (0)

[ask] Hi, do you know how CCOC(=O)/C(=C/c1ccccn1)C(=O)c1ccccc1 came out in this test?
[reply] no (0)

[ask] // outcome(item) with item = CO/C1=C\C(C)=C\C(C)C(O)C(C)C/C(C)=C/C=C/C(OC)C(C(C)C(O)C(C)C2(O)CC(O)C(C)C(C(C)C)O2)OC1=O (stereo not given)
[reply] yes (1)

[ask] What did this assay record as the result for CCCCCCCC(=O)OCC1OC(n2cc(F)c(=O)[nH]c2=O)C(N)C(OC(=O)CCCCCCC)C1O (stereo not given) ?
[reply] no (0)

***
[ask] I'd appreciate the recorded outcome for CC1=CC(=O)c2c(C=O)c(O)c(O)c(C(C)C)c2C1=O from this test.
[reply] no (0)

[ask] Hi team, can someone confirm the assay call for CC[C@H]1CN2CCc3cc(OC)c(OC)cc3[C@@H]2C[C@@H]1C[C@H]1NCCc2cc(OC)c(OC)cc21 ?
[reply] yes (1)

[ask] For COc1ccc(C(=O)c2c(C(C(=O)c3ccc(OC)cc3)C(=O)c3ccc(OC)cc3)n(C(=O)c3ccc(OC)cc3)c3ccccc23)cc1 , which call appears in the assay record?
[reply] no (0)

[ask] Which outcome did this test record for the compound CCN(CC)CCOC(c1ccccc1)c1ccccc1.CCOC(=O)Nc1ccc(S(=O)(=O)OC)cc1.CCOC(=O)Nc1ccc(S(=O)(=O)OC)cc1.Nc1ccc(C(=O)O)c(O)c1 ?
[reply] no (0)

[ask] Dear colleague, could you share the recorded outcome for Cc1cccc2c1C(=O)OC2(c1cccc2ccccc12)c1cccc2ccccc12 when you have a moment?
[reply] no (0)

[ask] Look up the recorded call for Cc1cc(NC(=O)C(=O)Cc2nc3ccccc3s2)ccc1Cl in this test.
[reply] no (0)

[ask] How was Cc1cc(O)nc(NN2C(Cl)C(=O)C2c2cccc(O)c2)n1 (stereo not given) classified in this test?
[reply] no (0)

----------
- Test system: OVCAR-8
- measurement_notes: NCI tumour cell line growth inhibition, 48 h
Activity calls are given as the source filed them. Cut-off read from the data, not from the text of the source: active = GI50 up to about 1.1 µM and inactive = higher.
observed_property: GI50

# annotated cases, reported GI50 shown
The compound CC(=O)OCc1ncccc1C(OC(C)=O)OC(C)=O showed GI50 equal to > 100 µM (inactive)

GI50 reported for this compound CN(C)CCNC(=O)c1cccc2c1Oc1cccc([N+](=O)[O-])c1O2 : 20.8 µM (inactive)

compound CCc1nc(N)nc(N)c1-c1ccc([N+](C)(C)C)cc1 , GI50 observed: > 100 µM (inactive)

Field GI50 (entry COc1cc(N2C(=O)C(=O)C3(CCCCC3)C2=O)cc(OC)c1OC ) reads > 100 µM (inactive)

Kindly give each listed record's GI50.
1. O=C(O)CCSC1=NCCN1
2. O=P1(Oc2ccc(Cl)cc2Cl)Oc2ccc3ccccc3c2-c2c(ccc3ccccc23)O1
3. COc1ccc2c(c1)[nH]c1c(/C=C/c3ccccc3)nccc12
4. COc1ccc(C2=CC(c3ccccc3)n3nnnc3N2)cc1 (configuration not stated)

[reply]
1. > 100 µM (inactive)
2. 40.1 µM (inactive)
3. 14.2 µM (inactive)
4. > 100 µM (inactive)
